Provide the reported pIC50 of each item.
system: HIV-1 RT-associated RNase H (Human immunodeficiency virus type 1 group M subtype B)
testSummary: HIV-1 DNA polymerase-independent RNase H activity determination (wt RT)
Type: biochemical
measurementParameters: wt RT; read-out: IC50, HIV-1 RT-associated RNase H activity
Worth noting: pIC50 values are minus log10 of concentrations stated in mol/L.

For HIV-1 RT-associated RNase H (Human immunodeficiency virus type 1 group M subtype B), provide pIC50 of `NC(=O)c1c(NC(=O)c2ccc(O)c(O)c2)sc2c1CCCCC2` please.
5.59

For HIV-1 RT-associated RNase H (Human immunodeficiency virus type 1 group M subtype B), provide pIC50 of `O=c1oc(-c2ccc(O)c(O)c2)nc2sc3c(c12)CCCCC3` please.
5.96

For HIV-1 RT-associated RNase H (Human immunodeficiency virus type 1 group M subtype B), provide pIC50 of `O=c1oc(-c2ccc(O)c(O)c2)nc2c1sc1ccccc12` please.
6.02

For HIV-1 RT-associated RNase H (Human immunodeficiency virus type 1 group M subtype B), provide pIC50 of `O=c1oc(-c2ccccc2O)nc2sc3c(c12)CCCCC3` please.
4.74

For HIV-1 RT-associated RNase H (Human immunodeficiency virus type 1 group M subtype B), provide pIC50 of `O=c1oc(-c2ccc(O)c(O)c2)nc2sc3ccccc3c12` please.
6.28

---

system: HIV-1 RT-associated RNase H (Human immunodeficiency virus type 1 group M subtype B)
testSummary: HIV-1 DNA polymerase-independent RNase H activity determination (wt RT)
Type: biochemical
measurementParameters: compound added after the RNA:DNA duplex substrate; read-out: IC50, RNase H activity, compound added after the RNA:DNA duplex substrate
Experimental: Heterodimeric RT was expressed essentially as described[19]^,[39]. […] Catalytic activities and protein concentrations were determined. […] HIV RT-associated RNase H activity was measured as described[40] using as a control the RNase H selective inhibitor RDS1759[9], and using different amount of enzymes according to a linear range of dose-response curve: 20 ng of WT RT; 75 ng V108F RT; 50 ng Y188A RT; 30 ng W229A RT; 100 ng A502F RT.
testReadout: pIC50
Worth noting: pIC50 values are minus log10 of concentrations stated in mol/L.

What measured pIC50 goes with O=c1oc(-c2ccc(O)c(O)c2)nc2sc3c(c12)CCCCC3 [Compound 10] ?
4.96

---

system: A502F RT (RNase H function) (Human immunodeficiency virus type 1 group M subtype B, UniProt P04585, A1089F)
testSummary: RNase H activity of A502F mutated RT
Format: biochemical, HIV-1
pIC50: −log10 of the molar value.
testReadout: pIC50

What measured pIC50 goes with O=c1oc(-c2ccc(O)c(O)c2)nc2sc3ccccc3c12 [Compound 22] ?
< 4.00

Origin of values: paper PMC6211256
